# TARGET OR TEST SYSTEM: Nuclear receptor subfamily 1 group I member 2 (Homo sapiens)
# Sequence (O75469 whole entry, the tested form may be a part): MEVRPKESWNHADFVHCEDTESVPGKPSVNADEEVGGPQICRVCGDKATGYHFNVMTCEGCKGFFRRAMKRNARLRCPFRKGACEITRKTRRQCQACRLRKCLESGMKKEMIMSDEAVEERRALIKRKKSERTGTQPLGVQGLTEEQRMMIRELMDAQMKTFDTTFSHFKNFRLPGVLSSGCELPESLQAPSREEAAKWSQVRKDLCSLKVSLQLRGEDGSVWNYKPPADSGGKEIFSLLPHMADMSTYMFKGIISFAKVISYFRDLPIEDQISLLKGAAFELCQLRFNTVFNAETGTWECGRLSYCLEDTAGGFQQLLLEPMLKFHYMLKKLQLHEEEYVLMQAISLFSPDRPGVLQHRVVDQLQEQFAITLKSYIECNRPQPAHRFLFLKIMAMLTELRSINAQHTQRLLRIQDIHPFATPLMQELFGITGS
# ASSAY NAME: Binding affinity to human SXR transfected in human HepG2 cells coexpressing GAL4 assessed as transcriptional activation at 5 X 10^-6 M after 48 hrs by luciferase reporter gene assay
# Type: cell-based
# CONDITION DESCRIPTION: hepg2, 48 h, 5 µM
MEASURE: Activity

Sample answers from the record:
CC(C)=CCC/C(C)=C/CC/C(C)=C/CC1=C(C)C(=O)c2ccccc2C1=O = Active
CC1=C(C/C=C(\C)CC/C=C(\C)CO)C(=O)c2ccccc2C1=O = Not Active
CO[C@H]1/C=C/O[C@@]2(C)Oc3c(C)c(O)c4c(O)c(c(/C=N/N5CCN(C)CC5)c(O)c4c3C2=O)NC(=O)/C(C)=C\C=C\[C@H](C)[C@H](O)[C@@H](C)[C@@H](O)[C@@H](C)[C@H](OC(C)=O)[C@@H]1C [RIFAMPIN] = Active
CC(C)=CCC/C(C)=C/CC/C(C)=C/CC/C(C)=C/CC1=C(C)C(=O)c2ccccc2C1=O [MENATETRENONE] = Active
CC1=C(C/C=C(\C)CC/C=C(\C)CC/C=C(\C)CC/C=C(\C)CO)C(=O)c2ccccc2C1=O = Not Active
CC1=C(C/C=C(\C)CC/C=C(\C)CC/C=C(\C)CO)C(=O)c2ccccc2C1=O = Not Active
CC(C)=CCC1=C(C)C(=O)c2ccccc2C1=O = Active
CC1=C(C/C=C(\C)CC/C=C(\C)Cc2ccccc2)C(=O)c2ccccc2C1=O = Active

Please give the documented Activity of CC(C)=CCC/C(C)=C/CC1=C(C)C(=O)c2ccccc2C1=O [MENAQUINONE-2]
Active

Please give the documented Activity of CC1=C(C/C=C(\C)CC/C=C(\C)CC/C=C(\C)Cc2ccccc2)C(=O)c2ccccc2C1=O
Active
